Target: soluble IGF-1 receptor (human) (UniProt P08069)
Assay: phage ELISA
No end group written: not given here.
Reported property: ratio over background
Please respond with just the number, no unit label.

Lookup: Using the record for LSSDGQFYRANLLLQGSAGR [20E2B-2-B7-IGFR] , report its ratio over background.
Found: 6.1

Lookup: Then what about the binder RGKTAAVIVGRPADPFYHKLSELLQGG [B6Hα-3-E8-IR] ?
Found: 5.3

Lookup: Then what about the binder LSCLAYSRHGIWRPSTDLGLGRSVGEGSVSTRWRGYDWFE [40F-4-D1-IGFR] ?
Found: 4.6

Lookup: Then what about the binder QGGSASFYDAIDRLLRMRIGG [20E2A-4-F11-IGFR] ?
Found: 18.8

Lookup: Then what about the binder RCQGTGFYTCIQELIGFGDPD [20E2B-4-H9-IGFR] ?
Found: 5.2

Lookup: Then what about the binder RGMKEEVLVGGSTDPFYHKLSELLQGS [B6Hα-3-F11-IR] ?
Found: 18.7

Lookup: Then what about the binder LQPCSGFYECIERLIGVKLSG (not fully specified (bridges); cysteine pairing not given here) [20E2Bβ-4-G7-IR] ?
Found: 25.2

Lookup: Then what about the binder SSYGCDGFYLMLFSLGLVASQELEC [20C-3-A1-IGFR] ?
Found: 20.8

Lookup: Then what about the binder LGYQEPFQQNFYDWFVRQVSGAENAG [H2CA-3-E8-IGFR] ?
Found: 6.3

Lookup: Then what about the binder RFSTDGFYQYLLALVGGGPVG [20E2B-1-A11-IGFR] ?
Found: 9.5

Lookup: Then what about the binder LSVALSFYDALGQLVAGEGRW [20E2A-3-A12-IGFR] ?
Found: 4.3

Lookup: Then what about the binder SRVAATKEKRPSDDPFYHKLSELLQGS [B6Hα-3-F7-IR] ?
Found: 3.1

Lookup: Then what about the binder TFYSCLASLLTGTPQPNRGPWERCR [20C-3-G3-IGFR] ?
Found: 32.3

Lookup: Then what about the binder HLADGQFHEKFYDWFERQISSRCNDC [H2CA-3-E11-IGFR] ?
Found: 2.2
